- target-under-test: T1, EsCas13d, nuclease-dead (Eubacterium siraeum, UniProt B0MS50, R295A;H300A;R849A;H854A)
- T1 sequence: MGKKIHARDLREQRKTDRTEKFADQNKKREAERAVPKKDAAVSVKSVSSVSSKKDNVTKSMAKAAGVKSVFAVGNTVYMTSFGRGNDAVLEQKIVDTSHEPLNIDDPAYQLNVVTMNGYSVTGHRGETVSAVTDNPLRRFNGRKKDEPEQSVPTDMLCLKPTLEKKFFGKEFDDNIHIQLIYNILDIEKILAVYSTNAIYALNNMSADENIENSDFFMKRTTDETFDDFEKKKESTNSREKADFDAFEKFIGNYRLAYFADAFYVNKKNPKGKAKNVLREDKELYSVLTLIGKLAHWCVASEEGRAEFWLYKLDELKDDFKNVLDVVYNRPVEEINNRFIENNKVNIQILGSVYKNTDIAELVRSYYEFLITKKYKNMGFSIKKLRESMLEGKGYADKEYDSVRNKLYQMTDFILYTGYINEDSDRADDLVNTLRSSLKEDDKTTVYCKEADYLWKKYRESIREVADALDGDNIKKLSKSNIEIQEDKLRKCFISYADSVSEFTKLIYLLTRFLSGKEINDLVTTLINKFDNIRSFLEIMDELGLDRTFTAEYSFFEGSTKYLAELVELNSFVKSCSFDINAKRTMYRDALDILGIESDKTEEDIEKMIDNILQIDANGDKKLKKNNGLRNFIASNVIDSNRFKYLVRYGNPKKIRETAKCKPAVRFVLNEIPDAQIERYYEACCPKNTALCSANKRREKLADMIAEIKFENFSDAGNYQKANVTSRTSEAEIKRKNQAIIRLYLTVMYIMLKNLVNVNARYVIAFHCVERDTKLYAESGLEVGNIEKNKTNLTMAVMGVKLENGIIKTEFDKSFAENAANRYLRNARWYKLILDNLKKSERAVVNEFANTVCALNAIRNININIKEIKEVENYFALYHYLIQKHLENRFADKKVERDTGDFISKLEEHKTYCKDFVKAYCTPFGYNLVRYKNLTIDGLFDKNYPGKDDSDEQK
- assay: crRNA (strand 1, pre-loaded); Mg2+; 40 mM Tris-HCl pH 7.5, 150 mM NaCl, 6 mM MgCl2, 1 mM DTT, 0.1% Tween-20, 0.2 mg/ml BSA; 25 C; 10 min per concentration, then washed
- assay-setup: tags: His6-TwinStrep-SUMO cleaved; N-terminal SNAP kept (SNAP-Surface 488); label: 3' end held by stalled T7 RNA polymerase
pKd: −log10 of the molar value.
Entries and their pKd

binder	pKd
target 3 G4C,A9G (mixed) RNA 1: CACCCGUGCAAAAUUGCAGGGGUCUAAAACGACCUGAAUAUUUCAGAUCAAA RNA 2: GGGAAUGGAUCCACAUCUACGAAUUCGUUUUUGAUCUGAAAUGUUCACGUCUGCAGAUCGGAAGAGCACACGU	7.36
target 1 insC 3' of 17,insA 3' of 10 (mixed) RNA 1: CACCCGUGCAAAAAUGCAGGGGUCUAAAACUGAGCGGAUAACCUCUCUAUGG RNA 2: GGGAAUGGAUCCACAUCUACGAAUUCGUACCAUAGCAGAGGUUAAUCCGCUCACCGAGAUCGGAAGAGCACACGU	7.36
